Provenance of the data: ChEMBL document CHEMBL1201862

Attribute: IC50
Assay: cells
Format: functional
Active and inactive are the calls of the source.

| compound | result |
| --- | --- |
| COc1cccc(C(=O)N2N=C(c3ccccn3)CC2(O)C(F)(F)F)c1 (centres undefined) | 8.68 µM (active) |
| Nc1ccc2c(c1)C(=O)C(=O)c1ccccc1-2 | 7.1 µM (active) |
| CCCc1nnc(NC(=O)c2cc3ccccc3oc2=O)s1 | 2.83 µM (active) |

Let's switch to this compound now.
Record OC(CNCC1CCCO1)Cn1c2ccc(Cl)cc2c2cc(Cl)ccc21 (centres undefined) . Reported IC50: 8.48 µM (active)

----------
Target: Caspase-3 (Homo sapiens, UniProt P42574);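 also: Dose-response selectivity test against caspase-3 for candidate inhibitors of sentrin-specific proteases (SENPs)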
Format: functional
Calls of active or inactive are those of the source.
metric: IC50

| structure.smiles.string | IC50 |
| --- | --- |
| Oc1ccc(Cl)cc1N=Nc1ccccc1 | 23.6 µM (active) |

Let's switch to this molecule now.
Let me check: `Oc1nc(SCc2ccc(Cl)cc2)nc2ccsc12` , system Caspase-3 (Homo sapiens, UniProt P42574), measured IC50 is 15.2 µM (active)

----------
Assay: Luminescence Cell-Based Dose Retest to Confirm Inhibitors of Cancer Stem Cells. [Related pubchem assays (depositor defined):AID2717, AID2721]
Type: functional
Settings: Homo sapiens
Activity calls are given as the source filed them.
metric: AC50

In the examples that follow, each entry is paired with its recorded AC50.
| molecule | AC50 |
| --- | --- |
| CCC(C)N1C(=O)/C(=C/NNc2ccccc2)C(=O)NC1=S (stereo unspecified) | 2.24 µM (active) |
| Oc1nc(CN2CCN(c3ccccn3)CC2)nc2c(Br)cc(Br)cc12 | 2.76 µM (active) |
| CC1(C)CC[C@@]2(C(=O)O)C(C1)C1=CCC3[C@@]4(C)CC[C@H](O)C(C)(C)C4CC[C@@]3(C)[C@]1(C)C[C@H]2O (stereo partly specified) | 7.33 µM (active) |

Record `COc1ccc(-c2sc3ccc(N4CCOCC4)cc3c2C#CCCO)cc1` . Reported AC50: 3 µM (active)

Record `Cc1ccc(-c2cc(-c3ccccc3)nc(NN)n2)cc1` . Reported AC50: 5.4 µM (active)

Record OC(CNCC1CCCO1)Cn1c2ccc(Cl)cc2c2cc(Cl)ccc21 (stereo unspecified) . Reported AC50: 3.42 µM (active)

----------
Target: Leucine aminopeptidase (Plasmodium falciparum 3D7, UniProt Q8IL11)
Sequence (Q8IL11 whole entry): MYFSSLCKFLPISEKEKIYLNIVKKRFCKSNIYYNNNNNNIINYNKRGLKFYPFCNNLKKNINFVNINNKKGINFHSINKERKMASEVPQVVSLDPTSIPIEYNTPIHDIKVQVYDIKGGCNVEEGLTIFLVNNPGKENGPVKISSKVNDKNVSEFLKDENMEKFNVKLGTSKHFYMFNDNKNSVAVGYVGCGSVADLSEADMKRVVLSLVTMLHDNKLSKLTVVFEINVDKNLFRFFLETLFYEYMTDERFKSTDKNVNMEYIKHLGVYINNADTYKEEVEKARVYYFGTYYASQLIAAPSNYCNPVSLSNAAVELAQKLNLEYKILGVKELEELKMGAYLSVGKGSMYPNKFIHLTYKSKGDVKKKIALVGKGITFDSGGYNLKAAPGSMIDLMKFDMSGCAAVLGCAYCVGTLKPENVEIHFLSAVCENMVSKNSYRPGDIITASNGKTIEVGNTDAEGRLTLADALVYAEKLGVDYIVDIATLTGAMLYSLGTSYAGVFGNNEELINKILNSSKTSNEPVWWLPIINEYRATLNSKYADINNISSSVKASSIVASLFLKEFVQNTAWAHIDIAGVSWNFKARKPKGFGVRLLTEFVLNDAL
Experiment: P. falciparum M17LAP inhibitors, primary screen, biochemical, fluorogenic H-Leu-NHMec substrate, 1536-well (AID 1619)
Type: functional
The source made the active and inactive calls.
Attribute: IC50

| compound | IC50 |
| --- | --- |
| Oc1cc(-c2ccc(Cl)c(Cl)c2)[nH]n1 | < 1 µM (active) |
| Cc1cc(NC(=O)CCN2C(=O)C3C4CCC(C4)C3C2=O)c(C)cc1Br (stereo not drawn) | 13.7 µM (active) |
| O=C(c1ccco1)N1CCN(C(=O)c2[nH]ncc2[N+](=O)[O-])CC1 | 2.22 µM (active) |
| Cc1ccc(S(=O)(=O)Oc2cccc(N3C(=O)C4CC=CCC4C3=O)c2)cc1 (stereo not drawn) | 49.6 µM (active) |
| Cc1ccc(C2C(C(=O)c3ccc(Br)cc3)=C(O)C(=O)N2Cc2ccco2)o1 (stereo not drawn) | 66.4 µM (active) |

Record `Nc1n[nH]c(SCC(=O)Nc2ccc3c(c2)CCC3)n1` . Reported IC50: 45.2 µM (active)

Record `O=C(Cc1cc(O)n[nH]1)N/N=C/C(Cl)=C/c1ccccc1` . Reported IC50: 90.6 µM (active)

Record `Clc1ccccc1CNc1ncnc2nc[nH]c12` . Reported IC50: 48.3 µM (active)

----------
Molecular target: High affinity choline transporter 1 (Homo sapiens)
Sequence (Q9GZV3 whole entry): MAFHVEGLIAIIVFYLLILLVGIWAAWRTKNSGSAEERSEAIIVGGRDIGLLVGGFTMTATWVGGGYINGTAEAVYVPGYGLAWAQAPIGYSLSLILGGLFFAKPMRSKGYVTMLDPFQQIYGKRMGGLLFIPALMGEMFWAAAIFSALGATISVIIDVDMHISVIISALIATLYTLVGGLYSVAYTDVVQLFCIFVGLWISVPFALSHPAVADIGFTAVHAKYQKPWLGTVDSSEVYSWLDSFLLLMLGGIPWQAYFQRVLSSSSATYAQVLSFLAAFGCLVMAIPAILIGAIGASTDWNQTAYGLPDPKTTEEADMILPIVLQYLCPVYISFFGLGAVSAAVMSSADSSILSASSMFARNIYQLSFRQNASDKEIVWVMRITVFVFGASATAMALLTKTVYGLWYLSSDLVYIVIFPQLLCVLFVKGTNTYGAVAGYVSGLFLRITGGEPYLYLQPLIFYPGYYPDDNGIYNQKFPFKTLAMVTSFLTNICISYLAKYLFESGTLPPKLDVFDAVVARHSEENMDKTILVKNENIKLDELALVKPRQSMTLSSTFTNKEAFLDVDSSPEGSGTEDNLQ
Test: human choline transporter blockers, potency – cell-based, 5-point CRC, membrane potential dye, dose response (AID 504840)
Format: functional
The source made the active and inactive calls.
Attribute: IC50

In the examples that follow, each entry is paired with its recorded IC50.
| compound | IC50 |
| --- | --- |
| CN(Cc1ccccc1)S(=O)(=O)c1ccc2ncc(C(=O)NCC3CCCO3)c(O)c2c1 (stereo unspecified) | 15.2 µM (active) |
| CC(C)(C)S(=O)(=O)/C(C#N)=N/Nc1ccc(C#N)cc1 | 12 µM (active) |

Record CCCCC(Br)C(=O)Nc1ccc(S(=O)(=O)Nc2cc(C)nc(C)n2)cc1 (stereo unspecified) . Reported IC50: 15.9 µM (active)

Record `O=C(C[n+]1cccc(Br)c1)c1ccccc1` . Reported IC50: 3.23 µM (active)

Record `CCOc1cc(C=C2C(=O)NC(=O)NC2=O)ccc1OS(=O)(=O)c1ccccc1` . Reported IC50: 12.6 µM (active)

Record CC(=O)OC1CC2(C)C(=O)CCC2C2CCc3cc(O)ccc3C12 (stereo unspecified) . Reported IC50: 9.28 µM (active)

----------
Attribute: IC50
Molecular target: Probable nicotinate-nucleotide adenylyltransferase (Staphylococcus aureus (strain N315), UniProt P65502);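 also: confirmatory dose-response retesting of NadD inhibitor hits first found in an ultra-high-throughput screen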
Sequence (P65502 whole entry): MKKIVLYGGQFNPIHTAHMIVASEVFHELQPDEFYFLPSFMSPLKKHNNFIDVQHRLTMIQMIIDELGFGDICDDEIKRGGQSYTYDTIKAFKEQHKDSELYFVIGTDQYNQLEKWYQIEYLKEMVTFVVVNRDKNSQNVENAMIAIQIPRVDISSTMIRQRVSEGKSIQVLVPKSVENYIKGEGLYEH
Type: functional, Staphylococcus aureus subsp. aureus N315
Conditions: read-out: IC50_Mean
Activity calls are given as the source filed them.

In the examples that follow, each entry is paired with its recorded IC50.
| molecule | result |
| --- | --- |
| Cc1ccnc(NS(=O)(=O)c2ccc(NC(=O)c3cc(-c4ccc(Br)cc4)nc4ccccc34)cc2)n1 | 20.9 µM (active) |
| Cc1ccccc1CSCC1Nc2ccc(C(=O)NCCc3ccccc3)cc2NC1=O (stereo not given) | 17.2 µM (active) |
| CCc1nnc(NS(=O)(=O)c2ccc(N/C=C\C(=O)c3ccc4ccccc4c3)cc2)s1 | 29.7 µM (active) |
| N#CC1=C(S)N=C(N)C(c2nc(-c3ccccc3)cs2)C12CCCC2 (stereo not given) | 19.1 µM (active) |

Let's switch to this molecule now.
Record `O=C(Nc1ccn(CCCN(CCCn2ccc(NC(=O)OCc3ccccc3)nc2=O)CCc2cc3ccccc3[nH]2)c(=O)n1)OCc1ccccc1` . Reported IC50: 40.7 µM (active)

----------
Target: DNA dC->dU-editing enzyme APOBEC-3A (Homo sapiens, UniProt P31941)
Sequence (P31941 whole entry): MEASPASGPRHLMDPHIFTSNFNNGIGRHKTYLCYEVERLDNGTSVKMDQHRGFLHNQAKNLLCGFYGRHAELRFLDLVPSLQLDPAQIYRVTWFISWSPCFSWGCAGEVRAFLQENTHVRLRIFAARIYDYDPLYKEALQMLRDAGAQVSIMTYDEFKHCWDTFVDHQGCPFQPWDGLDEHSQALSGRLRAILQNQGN
Assay: Dose Response confirmation of small molecule APOBEC3A DNA Deaminase Inhibitors via a fluorescence-based single-stranded DNA deaminase assay. [Related pubchem assays (depositor defined):AID493011, AID493024]
Type: functional
The source made the active and inactive calls.
Attribute: IC50

| compound | IC50 |
| --- | --- |
| Cc1cc(C)cc(OCC(=O)N2N=C(C(F)(F)F)CC2(O)C(C)(C)C)c1 (stereo unspecified) | 4.6 µM (active) |
| C[N+]1(CC(=O)OCCCc2ccccc2)CCCCC1 | 2.1 µM (active) |
| CCN(CC)C(=O)Cn1c(C)c(/C=C/c2cc[n+](C)cc2)c2ccccc21 | 2.08 µM (active) |
| CC(=O)Nc1ccc2c(COC(=O)CC3Sc4ccccc4NC3=O)cc(=O)oc2c1 (stereo unspecified) | 19.3 µM (active) |
| COC(=O)C1=C(C)N(Cc2ccccc2)C(NCCc2ccccn2)=N[C@H]1c1cccc(F)c1 | 2.67 µM (active) |

Record `CC[n+]1c(C)n(Cc2ccccc2)c2ccc(Cl)cc21` . Reported IC50: 1.39 µM (active)

----------
Attribute: EC50
Experiment: NIH3T3 cell viability loss – ATP luminescence, mouse fibroblasts, counter-screen, dose response (AID 2010);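 also: cells exposed to compound for about 90 hours before reading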
Format: functional, cell-based
Calls of active or inactive are those of the source.

Record `Fc1cccc(C[n+]2csc3ccccc32)c1` . Reported EC50: > 60 µM (not active)

Record `CC(C)(C)c1ccccc1OCC(=O)Nc1ccccc1C(=O)NCc1cccnc1` . Reported EC50: > 60 µM (not active)

Record `CCc1c(C)c(C#N)c2nc3ccccc3n2c1NCCN(C)C` . Reported EC50: > 30 µM (not active)

Record `CC(=O)Nc1ccc(NC(=O)c2cc([N+](=O)[O-])cc([N+](=O)[O-])c2)cc1` . Reported EC50: > 60 µM (not active)

Record `Cc1cc(C(=O)N/N=C/c2ccc([N+](=O)[O-])s2)[nH]n1` . Reported EC50: > 60 µM (not active)

Record `O=C(CSc1cccc2cccnc12)Nc1ccc(S(=O)(=O)N2CCOCC2)cc1` . Reported EC50: 7.88 µM (active)
